experiment: Antiproliferative activity against human IN1528 cells after 72 hrs by SRB method; format: functional, cell-based; settings: IN1528, 72 h
measurement.kind: EC50 (µM)
State the answer as a number, implicitly in µM.

Q: Consider the compound shown here: CCCCCCCC[n+]1ccc(C(=O)N(C)c2cc[n+](CCCCCCCC)cc2)cc1 What is its recorded EC50?
Result: 9.8

---

assay: Antiproliferative activity against human U251MG cells after 72 hrs by SRB method; format: functional, cell-based; conditions: U-251, 72 h
measurement.kind: EC50
Your reply should be a number followed by the unit it is expressed in.

Q: Consider the compound shown here: CCCCCCCC[n+]1ccc(C(=O)N(C)c2cc[n+](CCCCCCCC)cc2)cc1 What is its recorded EC50?
Result: 312 µM

Reference source: ChEMBL document CHEMBL3351806
